Procedure Summary: Radiochemical stability in physiological pH water environment
Type: physicochemical
Study Conditions: radiochemical purity, pH 7, 37 °C, incubation time 0 min, n = 1
The reader will find reported Stability in Physiological pH (%) values listed item by item below.

// worked examples, Stability in Physiological pH (%) included
Request: // lookup Stability in Physiological pH (%) for O=C([O-])CN1CCN(CC(=O)[O-])CCN(CC(=O)N[C@H]2CC[C@H](NC(=O)[C@H](Cc3ccc4ccccc4c3)NC(=O)CC[C@H](NC(=O)N[C@@H](CCC(=O)O)C(=O)O)C(=O)O)CC2)CCN(CC(=O)[O-])CC1.[68Ga+3] [[^68Ga]Ga-P16]
Result: 99.3%

Request: // lookup Stability in Physiological pH (%) for O=C([O-])CN1CCN(CC(=O)[O-])CCN(CC(=O)NCc2ccc(C(=O)N[C@H](C(=O)NCCCC[C@H](NC(=O)N[C@@H](CCC(=O)O)C(=O)O)C(=O)O)C(c3ccccc3)c3ccccc3)cc2)CCN(CC(=O)[O-])CC1.[68Ga+3] [[^68Ga]Ga-P19]
Result: 99.8%

Request: // lookup Stability in Physiological pH (%) for O=C([O-])CN1CCN(CC(=O)[O-])CCN(CC(=O)NCC2CCC(C(=O)NC(Cc3ccc4ccccc4c3)C(=O)NCCCCC(NC(=O)NC(CCC(=O)O)C(=O)O)C(=O)O)CC2)CCN(CC(=O)[O-])CC1.[68Ga+3] (stereo not shown) [[^68Ga]Ga-PSMA-617, reference compound]
Result: 98.4%

Let us move to another entry and its Stability in Physiological pH (%).
Request: // lookup Stability in Physiological pH (%) for O=C([O-])CN1CCN(CC(=O)[O-])CCN(CC(=O)N[C@H]2CC[C@H](NC(=O)[C@@H](Cc3ccc4ccccc4c3)NC(=O)CC[C@H](NC(=O)N[C@@H](CCC(=O)O)C(=O)O)C(=O)O)CC2)CCN(CC(=O)[O-])CC1.[68Ga+3] [[^68Ga]Ga-P15]
Result: 99.0%

====

Procedure Summary: Radiochemical stability in physiological pH water environment
Format: physicochemical
Study Conditions: radiochemical purity, pH 7, 37 °C, incubation time 60 min, n = 1
Measurement Label: Stability in Physiological pH (%)
Answer with a number only, understood to be in %.

// worked examples, Stability in Physiological pH (%) included
Request: // lookup Stability in Physiological pH (%) for O=C([O-])CN1CCN(CC(=O)[O-])CCN(CC(=O)N[C@H]2CC[C@H](NC(=O)[C@H](Cc3ccc4ccccc4c3)NC(=O)CC[C@H](NC(=O)N[C@@H](CCC(=O)O)C(=O)O)C(=O)O)CC2)CCN(CC(=O)[O-])CC1.[68Ga+3] [[^68Ga]Ga-P16]
Result: 99.3

Request: // lookup Stability in Physiological pH (%) for O=C([O-])CN1CCN(CC(=O)[O-])CCN(CC(=O)N[C@H]2CC[C@H](NC(=O)[C@@H](Cc3ccc4ccccc4c3)NC(=O)CC[C@H](NC(=O)N[C@@H](CCC(=O)O)C(=O)O)C(=O)O)CC2)CCN(CC(=O)[O-])CC1.[68Ga+3] [[^68Ga]Ga-P15]
Result: 98.7

Request: // lookup Stability in Physiological pH (%) for O=C([O-])CN1CCN(CC(=O)[O-])CCN(CC(=O)NCC2CCC(C(=O)NC(Cc3ccc4ccccc4c3)C(=O)NCCCCC(NC(=O)NC(CCC(=O)O)C(=O)O)C(=O)O)CC2)CCN(CC(=O)[O-])CC1.[68Ga+3] (stereo not shown) [[^68Ga]Ga-PSMA-617, reference compound]
Result: 98.9

Continuing:
Request: // lookup Stability in Physiological pH (%) for O=C([O-])CN1CCN(CC(=O)[O-])CCN(CC(=O)NCc2ccc(C(=O)N[C@H](C(=O)NCCCC[C@H](NC(=O)N[C@@H](CCC(=O)O)C(=O)O)C(=O)O)C(c3ccccc3)c3ccccc3)cc2)CCN(CC(=O)[O-])CC1.[68Ga+3] [[^68Ga]Ga-P19]
Result: 99.5

====

Procedure Summary: Stability in human plasma/serum (radiochemical purity by HPLC)
Format: in vitro ADME
Study Conditions: radiochemical purity, 37 °C, incubation time 30 min, n = 1
Measurement Label: Stability in human serum (%)
Answer with a number only, understood to be in %.

// worked examples, Stability in human serum (%) included
Request: // lookup Stability in human serum (%) for O=C([O-])CN1CCN(CC(=O)[O-])CCN(CC(=O)NCc2ccc(C(=O)N[C@H](C(=O)NCCCC[C@H](NC(=O)N[C@@H](CCC(=O)O)C(=O)O)C(=O)O)C(c3ccccc3)c3ccccc3)cc2)CCN(CC(=O)[O-])CC1.[68Ga+3] [[^68Ga]Ga-P19]
Result: 99.3

Request: // lookup Stability in human serum (%) for O=C([O-])CN1CCN(CC(=O)[O-])CCN(CC(=O)N[C@H]2CC[C@H](NC(=O)[C@@H](Cc3ccc4ccccc4c3)NC(=O)CC[C@H](NC(=O)N[C@@H](CCC(=O)O)C(=O)O)C(=O)O)CC2)CCN(CC(=O)[O-])CC1.[68Ga+3] [[^68Ga]Ga-P15]
Result: 98.9

Request: // lookup Stability in human serum (%) for O=C([O-])CN1CCN(CC(=O)[O-])CCN(CC(=O)NCC2CCC(C(=O)NC(Cc3ccc4ccccc4c3)C(=O)NCCCCC(NC(=O)NC(CCC(=O)O)C(=O)O)C(=O)O)CC2)CCN(CC(=O)[O-])CC1.[68Ga+3] (stereo not shown) [[^68Ga]Ga-PSMA-617, reference compound]
Result: 97.8

Continuing:
Request: // lookup Stability in human serum (%) for O=C([O-])CN1CCN(CC(=O)[O-])CCN(CC(=O)N[C@H]2CC[C@H](NC(=O)[C@H](Cc3ccc4ccccc4c3)NC(=O)CC[C@H](NC(=O)N[C@@H](CCC(=O)O)C(=O)O)C(=O)O)CC2)CCN(CC(=O)[O-])CC1.[68Ga+3] [[^68Ga]Ga-P16]
Result: 98.8

====

Procedure Summary: Stability in human plasma/serum (radiochemical purity by HPLC)
Type: in vitro ADME
Study Conditions: radiochemical purity, 37 °C, incubation time 120 min, n = 1
Method: […] Plasma stability was determined as follows. To 100 µL of ⁶⁸Ga-P15 with radioactivity of 45 kBq/100 µL, 400 µL of human plasma was added and mixed. […]
The reader will find reported Stability in human serum (%) values listed item by item below.
Answer with a number only, understood to be in %.

Request: // lookup Stability in human serum (%) for O=C([O-])CN1CCN(CC(=O)[O-])CCN(CC(=O)N[C@H]2CC[C@H](NC(=O)[C@@H](Cc3ccc4ccccc4c3)NC(=O)CC[C@H](NC(=O)N[C@@H](CCC(=O)O)C(=O)O)C(=O)O)CC2)CCN(CC(=O)[O-])CC1.[68Ga+3] [[^68Ga]Ga-P15]
Result: 99.4

Request: // lookup Stability in human serum (%) for O=C([O-])CN1CCN(CC(=O)[O-])CCN(CC(=O)N[C@H]2CC[C@H](NC(=O)[C@H](Cc3ccc4ccccc4c3)NC(=O)CC[C@H](NC(=O)N[C@@H](CCC(=O)O)C(=O)O)C(=O)O)CC2)CCN(CC(=O)[O-])CC1.[68Ga+3] [[^68Ga]Ga-P16]
Result: 97.3

Request: // lookup Stability in human serum (%) for O=C([O-])CN1CCN(CC(=O)[O-])CCN(CC(=O)NCc2ccc(C(=O)N[C@H](C(=O)NCCCC[C@H](NC(=O)N[C@@H](CCC(=O)O)C(=O)O)C(=O)O)C(c3ccccc3)c3ccccc3)cc2)CCN(CC(=O)[O-])CC1.[68Ga+3] [[^68Ga]Ga-P19]
Result: 99.9

Continuing:
Request: // lookup Stability in human serum (%) for O=C([O-])CN1CCN(CC(=O)[O-])CCN(CC(=O)NCC2CCC(C(=O)NC(Cc3ccc4ccccc4c3)C(=O)NCCCCC(NC(=O)NC(CCC(=O)O)C(=O)O)C(=O)O)CC2)CCN(CC(=O)[O-])CC1.[68Ga+3] (stereo not shown) [[^68Ga]Ga-PSMA-617, reference compound]
Result: 98.7

====

Procedure Summary: Stability in human plasma/serum (radiochemical purity by HPLC)
Format: in vitro ADME
Study Conditions: radiochemical purity, 37 °C, incubation time 60 min, n = 1
Measurement Label: Stability in human serum (%)
Answer with a number only, understood to be in %.

Request: // lookup Stability in human serum (%) for O=C([O-])CN1CCN(CC(=O)[O-])CCN(CC(=O)N[C@H]2CC[C@H](NC(=O)[C@@H](Cc3ccc4ccccc4c3)NC(=O)CC[C@H](NC(=O)N[C@@H](CCC(=O)O)C(=O)O)C(=O)O)CC2)CCN(CC(=O)[O-])CC1.[68Ga+3] [[^68Ga]Ga-P15]
Result: 99.8

Request: // lookup Stability in human serum (%) for O=C([O-])CN1CCN(CC(=O)[O-])CCN(CC(=O)NCC2CCC(C(=O)NC(Cc3ccc4ccccc4c3)C(=O)NCCCCC(NC(=O)NC(CCC(=O)O)C(=O)O)C(=O)O)CC2)CCN(CC(=O)[O-])CC1.[68Ga+3] (stereo not shown) [[^68Ga]Ga-PSMA-617, reference compound]
Result: 98.2

Request: // lookup Stability in human serum (%) for O=C([O-])CN1CCN(CC(=O)[O-])CCN(CC(=O)NCc2ccc(C(=O)N[C@H](C(=O)NCCCC[C@H](NC(=O)N[C@@H](CCC(=O)O)C(=O)O)C(=O)O)C(c3ccccc3)c3ccccc3)cc2)CCN(CC(=O)[O-])CC1.[68Ga+3] [[^68Ga]Ga-P19]
Result: 99.8

Let us move to another entry and its Stability in human serum (%).
Request: // lookup Stability in human serum (%) for O=C([O-])CN1CCN(CC(=O)[O-])CCN(CC(=O)N[C@H]2CC[C@H](NC(=O)[C@H](Cc3ccc4ccccc4c3)NC(=O)CC[C@H](NC(=O)N[C@@H](CCC(=O)O)C(=O)O)C(=O)O)CC2)CCN(CC(=O)[O-])CC1.[68Ga+3] [[^68Ga]Ga-P16]
Result: 98.3
